# Tested on: HT29 colon
# ASSAY PROCEDURE: NCI-60 one-dose screen, 48 h (100 = growth as untreated, 0 = no growth, -100 = all killed)
# CONDITION SET: 10 µM unless noted
The panel holds about 83,000 compounds, 20% with a hit somewhere; the sample as a whole holds those more often.
TEST READOUT: growth (%)

COMPOUND	UNIT INFO	RESULT NUMBER
CS(=O)(=O)c1ccc(-n2nc(-c3ccc(Br)cc3)c3ccccc3c2=O)cc1	%	101
Nc1n[nH]c2cc(F)c([C@@H]3Nc4ccc5[nH]ncc5c4[C@H]4C5CCC(C5)[C@@H]34)cc12 (stereo not given in full)	%	3.7
COc1ccc(Nc2nc(SC)nc(-c3cccc([N+](=O)[O-])c3)c2C#N)cc1	%	70.3
O=C1CC(=NCC(=O)n2c(-c3ccccc3)nc3ccccc32)NN1	%	108
COc1cccc(-c2nc3sccn3c2-c2ccnc(NCCNS(=O)(=O)c3ccccc3)c2)c1	%	23.6
CCOC(=O)n1cc(-c2nonc2-c2cn(C)c3ncccc23)c2cc(F)ccc21	%	83.2
CCCCCCN(CCCCCC)C(=N)c1ccnc2ccccc12	%	8.96
CC(=O)OCCC/C(=C/c1cc2ccccc2c2ccccc12)[N+](=O)[O-]	%	-44.7
CN(C)CCCNc1c2ccccc2nc2ccccc12	%	82.8
COc1ccc(N=Nc2nccs2)c(O)c1	%	40.2

* * *

# Tested on: SF-539 CNS
# ASSAY PROCEDURE: NCI-60 one-dose screen, 48 h (100 = growth as untreated, 0 = no growth, -100 = all killed)
# CONDITION SET: 10 µM unless noted
The panel holds about 83,000 compounds, 20% with a hit somewhere; the sample as a whole holds those more often. Active and inactive are the calls of the source. Rule for the calls: active = growth percent below 10; inactive = the rest.
Listed here: items and their measured growth.
TEST READOUT: growth

COMPOUND	RESULT
COc1ccc(CN2c3ccccc3Oc3ccccc32)cc1O	16.3% (inactive)
COC(=O)[C@@H]1CCCN1C(=O)[C@@H]1CCCN1C(=O)[C@H](Cc1ccccc1)NC(=S)Nc1cc(C(F)(F)F)cc(C(F)(F)F)c1	94% (inactive)
CC(=O)c1nc2ccccc2n1CC(=O)c1cccc(Cl)c1	-31.3% (active)
COc1cc2c(cc1-c1c(C)noc1C)ncc1nc(-c3ccccn3)n([C@H](C)COC(F)F)c12	41.7% (inactive)
CN1CCN(c2nc(NCCCCNc3ccnc4cc(Cl)ccc34)c3ccccc3n2)CC1	-73.7% (active)
CSc1ccc(-c2ccccc(=O)c2O)cc1	4.03% (active)
CCCc1cc(=O)n2c(C(=O)Nc3ccc(F)cc3)c(C(=O)Nc3ccc(F)cc3)sc2n1	63.2% [30 µM] (inactive)
COc1cccc(-c2nn(C(C)(C)C)cc2-c2ccnc(NCCCNS(=O)(=O)c3ccc(C)cc3)c2)c1	115% (inactive)
Fc1ccc2[nH]cc(SSc3c[nH]c4ccc(F)cc34)c2c1	36.8% (inactive)
COc1ccc2c(c1)C(=O)/C(=C/c1cccnc1)CC2	90.5% (inactive)
CN1CCN(Cc2ccc(NC(=O)c3cncc(C#Cc4cncn5ccnc45)c3)cc2C(F)(F)F)CC1	52.4% (inactive)
O=C(NCCN1CCOCC1)Nc1ccc(-c2cc3c(Nc4ccc(Oc5cccc(C(F)(F)F)c5)c(Cl)c4)ncnc3s2)cc1	-13.5% (active)
C(=N/Nc1ncc(-c2cc3cc(-c4ccccc4)ccc3o2)s1)/c1cccs1	99.6% (inactive)
CCN1CCC2(CC1)NC(=O)c1c(c3ccc(Cl)c(Cl)c3n1C)C2C#N (stereo not given)	52% (inactive)
COc1ccc(/C=C/C(=O)c2ccc(O)c(CN3CCN(c4cc5c(cc4F)c(=O)c(C(=O)O)cn5C4CC4)CC3)c2)cc1	18.8% (inactive)
Cn1cc(-c2nonc2-c2cn(C)c3ccc(F)cc23)c2ccccc21	-25.4% (active)
COc1ccccc1Nc1nc(-c2cc3cccc(C(F)(F)F)c3oc2=O)cs1	-32.9% (active)
O=C(O)c1ccc(NC(=O)c2ccc(-c3cccc([N+](=O)[O-])c3)o2)cc1	99.4% (inactive)
CS(=O)(=O)c1ccc(-n2nc(-c3ccc(Br)cc3)c3ccccc3c2=O)cc1	96.2% (inactive)
N#Cc1c(-c2ccc(Cl)cc2)nc(NN=Cc2ccco2)nc1N1CCOCC1	75.3% (inactive)

* * *

# System: EKVX NSCLC
# ASSAY PROCEDURE: NCI-60 one-dose screen, 48 h
# CONDITION SET: 10 µM unless noted
This is part of a sample that, as a whole, favours compounds with a hit. Of some 83,000 tested, about 20% had one in any assay. Activity calls are given as the source filed them. The calls were made as follows: active = growth percent below 10; inactive = the rest.
Outcome codes: active, inactive

COMPOUND	GROUP
CSc1nc(-c2cccc(NC(=O)CCl)c2)c(C#N)c(=O)n1C	inactive
Cc1nc2c3c(-c4ccccc4)c(-c4ccccc4)oc3ncn2n1	inactive
Cc1cc(N2CCCCC2)nc(NC2CCCC(Nc3ccnc4cc(Cl)ccc34)C2)n1 (stereo not drawn)	active
COc1cccc(NC(=O)c2sc3nc(C)c(C(C)=O)cc3c2N)c1	inactive
CCOC(=O)c1sc(Nc2ccc(Cl)cc2)nc1C	active
COc1ccc(-c2nc3ccc(-c4nc5ccc(N6CCN(c7ccc(F)cc7)CC6)cc5[nH]4)cc3[nH]2)cc1OC	inactive
CC(C)(O)c1cn(CCCCN2C(=O)C(=O)c3ccccc32)nn1	inactive
CC(C)(C)c1cc(/C=N\NC(=O)/C=C/C=C/c2ccc3c(c2)OCO3)c(O)c(C(C)(C)C)c1	inactive
COc1ccc(/C=C2\Oc3cc(OCCCCN4CCCC4)ccc3C2=O)cc1	inactive
O=C1/C(=C/N2N=C(c3ccc4ccccc4c3)CC2c2ccccc2O)SC(=S)N1c1cccnc1 (stereo not drawn)	inactive
CCC([N+](=O)[O-])S(=O)(=O)c1ccc(C)cc1 (stereo not drawn)	inactive
COc1ccc(Nc2nc(SC)nc(-c3cccc([N+](=O)[O-])c3)c2C#N)cc1	inactive
COc1ccc(/C=C\c2cc(OC)c(OC)c(OC)c2)cc1OCC(=O)Nc1ccc2nc(C)sc2c1	inactive
Oc1cccc2ccc(N/N=C/c3cc(CN4CCOCC4)c(O)c4ncccc34)nc12	inactive
Cn1c(NCCc2ccc(O)c(O)c2)nc2c1c(=O)n(Cc1ccc(Br)cc1)c(=O)n2C	inactive
Clc1ccc2c(NCCCCNc3nc(N4CCCCC4)nc4ccccc34)ccnc2c1	inactive
O=C(CCN1C(=O)/C(=C/c2ccc(Cl)cc2)SC1=S)NCCCN1CCOCC1	inactive
CCCCN(CCCC)CCCn1c(-c2ccccc2)ccc1-c1ccccc1	inactive
COc1cc(C(=O)Oc2ccccc2OC(=O)c2cc(OC)c(OC)c(OC)c2)cc(OC)c1OC	inactive
O=C1c2ccccc2OC=C(c2ccccc2)N1CCCCNc1ccc(S(=O)(=O)Nc2ncccn2)cc1	inactive
c1ccc2[nH]c(-c3ccc(Nc4nc(N5CCCC5)nc5[nH]ncc45)cc3)nc2c1	active
CCCc1cc(=O)n2c(C(=O)Nc3cccc(C(=O)OCC)c3)c(C(=O)Nc3ccc(F)cc3)sc2n1	inactive
Cc1[nH]c(-c2cc(N)ccc2Cl)c2c1C(=O)CCCC2	inactive
Cc1cc(N2CCOCC2)nc(N[C@@H]2CCC[C@H](Nc3ccnc4cc(Cl)ccc34)C2)n1	inactive
COc1ccc(-c2n[nH]nc2-c2csc3ccccc23)cc1OC	inactive
O=[N+]([O-])c1cnc(N2CCN(CC3CC3)CC2)nc1N1CCN(CC2CC2)CC1	inactive
CCOc1cc2ncc(C#N)c(Nc3ccc(F)c(Cl)c3)c2cc1NC(=O)CC1CCSS1 (stereo not drawn)	active
C/C1=C\CC[C@@]2(C)O[C@H]2[C@H]2OC(=O)C(CN3CCN(CC4C(=O)O[C@H]5[C@H]4CC/C(C)=C/CC[C@@]4(C)O[C@@H]54)CC3)[C@@H]2CC1 (stereo partly drawn)	inactive
C=CC(=O)Nc1cccc(Nc2nc(SC)nc(-c3cccc([N+](=O)[O-])c3)c2C#N)c1	inactive
COc1cc(/C=C/C(=O)c2cccnc2Nc2ccc(F)cc2)cc(OC)c1OC	inactive
COc1cccc(Nc2nc(SC)nc(-c3cccc([N+](=O)[O-])c3)c2C#N)c1	inactive
Cn1c(O)c(N=NC(=O)c2cc(-c3ccccc3)on2)c2ccccc21	inactive
O=C1/C(=C/c2ccc(Cl)cc2)SC(=S)N1CCc1ccc(O)cc1	inactive
CN(C)CCN1C(=O)c2cccc3c(N)ccc(c23)C1=O	inactive
COc1ccc(-c2cc(=O)c3c(OC)c4ccoc4cc3o2)cc1	inactive
COc1ccc(C2CC(c3ccc(Cl)cc3)=NN2/C=C2\SC(=S)N(NC(=O)Cc3ccccc3Nc3c(Cl)cccc3Cl)C2=O)cc1 (stereo not drawn)	inactive
COc1cccc2c1C(=O)c1c(O)c3c(c(O)c1C2=O)C[C@](O)(C(=O)CO)C[C@H]3O[C@@H]1C[C@@H](NC(=O)CCCN(C)C2(c3ccc(F)cc3)CC3CCC2C3)[C@H](O)[C@@H](C)O1 (stereo partly drawn)	active
O=C(O)c1c(=O)cccc2ssc12	inactive

These entries and their values trace back to PubChem BioAssay (NCI).
